- subjectOfTest: Cytochrome P450 3A4 (Homo sapiens) (UniProt P08684)
- Sequence (P08684 whole entry, looked up): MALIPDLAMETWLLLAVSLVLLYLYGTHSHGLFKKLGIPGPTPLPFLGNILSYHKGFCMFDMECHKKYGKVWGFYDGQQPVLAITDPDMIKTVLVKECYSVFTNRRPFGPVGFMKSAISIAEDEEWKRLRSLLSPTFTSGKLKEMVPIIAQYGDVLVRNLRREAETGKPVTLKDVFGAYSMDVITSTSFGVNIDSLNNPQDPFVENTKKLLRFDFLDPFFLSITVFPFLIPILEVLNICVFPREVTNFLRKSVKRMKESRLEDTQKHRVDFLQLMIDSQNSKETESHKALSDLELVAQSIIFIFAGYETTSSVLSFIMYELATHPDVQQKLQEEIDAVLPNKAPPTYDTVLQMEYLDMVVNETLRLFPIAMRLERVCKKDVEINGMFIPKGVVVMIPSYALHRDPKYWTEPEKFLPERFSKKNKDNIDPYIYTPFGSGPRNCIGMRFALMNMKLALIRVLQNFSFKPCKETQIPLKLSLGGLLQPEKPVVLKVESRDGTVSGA
- procedureSummary: Cytochrome panel assay with activity outcomes
- measurementContext: recombinant CYP, pro-luciferin dealkylation, luminescence, p450-cyp3a4; series mostly up to 57.1 µM
In all, about 16,000 compounds went through this assay and about 5,100 (32%) were called active. Roughly 25% stayed inconclusive and do not appear here. The call rests on the fitted dose curve; in most records, active means well fitted curve in the direction sought with a large enough effect; inconclusive means small, poorly fitted or top-dose-only effect, or effect the other way; inactive means no such curve, though single readings can be large or run the other way. The list shows a part of the results.
Bench note: report the call from yes (active), no (inactive)

# count of solved cases: 4
[[record]]
compound = "COc1ccc2c(Cl)c(C(=O)NCCCn3ccnc3)sc2c1Cl"
classlabel = "yes"

[[record]]
compound = "O=C(NCCCn1ccnc1)Nc1ccc(Cl)cc1"
classlabel = "yes"

[[record]]
compound = "S=C(S)NCCCn1ccnc1"
classlabel = "yes"

[[record]]
compound = "CC(=O)NN1C(=O)c2ccc(Oc3ccc([N+](=O)[O-])cc3)cc2C1=O"
classlabel = "no"


# input for lookup
Please share the test call associated with COC(=O)C1=C(C)NC(=O)NC1c1ccsc1 (stereo not given) .
no

###

- subjectOfTest: Cytochrome P450 3A4 (Homo sapiens) (UniProt P08684)
- procedureSummary: Cytochrome panel assay with activity outcomes
- measurementContext: recombinant CYP, pro-luciferin dealkylation, luminescence, p450-cyp3a4; series mostly up to 57.1 µM
Out of some 16,000 compounds screened, about 5,100 (32%) were called active. Inconclusive results (about 25%) are left out. Calls come from the whole dose curve; as a rule, active = well fitted curve in the direction sought with a large enough effect; inconclusive = small, poorly fitted or top-dose-only effect, or effect the other way; inactive = no such curve, though single readings can be large or run the other way. The list shows a part of the results.
Bench note: report the call from True = active, False = inactive

[[record]]
compound = "C[N+]1(CC(=O)OCCCc2ccccc2)CCOCC1"
classlabel = "False"

[[record]]
compound = "CCOC(=O)c1c(-c2ccccc2)nc2ccc(Cl)cn12"
classlabel = "False"

[[record]]
compound = "CSc1nsc(SC)c1C(=O)Nc1ccc(C)cc1"
classlabel = "True"


Please share the test call associated with O=C(O)c1cccnc1SCC(=O)N1CCCCCC1 .
False

Please share the test call associated with CN(C)Cc1ccccc1-c1cncnc1NC1CC1 .
True

###

- subjectOfTest: Cytochrome P450 3A4 (Homo sapiens)
- procedureSummary: Cytochrome panel assay with activity outcomes
- measurementContext: recombinant CYP, pro-luciferin dealkylation, luminescence, p450-cyp3a4; series mostly up to 57.1 µM
Out of some 16,000 compounds screened, about 5,100 (32%) were called active. Not shown: some 25% with an inconclusive outcome. Calls follow the shape of the dose curve; as a rule, active = well fitted curve in the direction sought with a large enough effect; inconclusive = small, poorly fitted or top-dose-only effect, or effect the other way; inactive = no such curve, though single readings can be large or run the other way. The list shows a part of the results.
Bench note: report the call from active, inactive

# count of solved cases: 8
[[record]]
molecule = "COC(=O)Nc1ccc2[nH]cc(CCNC(C)=O)c2c1"
classlabel = "inactive"

[[record]]
molecule = "Cc1cccc(Oc2ncnc3onc(C)c23)c1C"
classlabel = "inactive"

[[record]]
molecule = "CC(=O)NC(NC(C)=O)c1ccc(Br)cc1"
classlabel = "inactive"

[[record]]
molecule = "CC1CCCN(CC(O)COCC2COc3ccccc3O2)C1 (centres undefined)"
classlabel = "inactive"

[[record]]
molecule = "COC(=O)c1c(C)oc2ccc(N(C(=O)c3ccncc3)S(=O)(=O)c3ccccc3)cc12"
classlabel = "active"

[[record]]
molecule = "CC1CCCC(C)N1CC(O)COCC1COc2ccccc2O1 (centres undefined)"
classlabel = "inactive"

[[record]]
molecule = "Cc1cccc(NC(=O)CSc2nc3nc(C)cc(C)c3c(=O)[nH]2)c1"
classlabel = "active"

[[record]]
molecule = "CNC(=O)C(=O)NCCc1ccc(Cl)cc1"
classlabel = "inactive"


Please share the test call associated with COc1ccc(N2CCc3c(C)nc4c(OC)cc(OC)cc4c32)c(OC)c1 .
active

Please share the test call associated with CCCc1c(OCCCOc2ccc(OCC(=O)O)cc2)ccc(C(C)=O)c1O .
inactive

Please share the test call associated with COC(=O)c1c(C)[nH]c(C)c1C(=O)c1ccccc1Cc1ccccc1 .
active

Please share the test call associated with COC(=O)c1c(C)nc2ccccc2c1C(=O)O .
inactive

Please share the test call associated with CCCC(C(=O)Nc1nccs1)c1ccccc1 (centres undefined) .
active

Please share the test call associated with Cc1cc(C)c2c(=O)[nH]c(SCC(=O)N(C)C)nc2n1 .
inactive

Please share the test call associated with O=C(O)c1ccccc1C(=O)Nc1nccs1 .
inactive

Please share the test call associated with c1ccc(CN2c3ccccc3-c3nc4ccccc4n3C2c2ccccn2)cc1 (centres undefined) .
active

Please share the test call associated with COc1cccc(CNCCc2c[nH]c3ccccc23)c1OCc1ccccc1F .
active

Please share the test call associated with COCCn1c(C)cc2c(c1=O)C(c1ccccc1F)C(C#N)=C(N)O2 (centres undefined) .
active

Please share the test call associated with COc1ccc(-n2nnnc2-c2cn(C)nc2C(F)(F)F)cc1 .
inactive

###

- subjectOfTest: Cytochrome P450 3A4 (Homo sapiens)
- procedureSummary: Cytochrome panel assay with activity outcomes
- measurementContext: recombinant CYP, pro-luciferin dealkylation, luminescence, p450-cyp3a4; series mostly up to 57.1 µM
Among all 16,000 compounds or so, about 5,100 (32%) were called active. Roughly 25% stayed inconclusive and do not appear here. Calls come from the whole dose curve; as a rule, active = well fitted curve in the direction sought with a large enough effect; inconclusive = small, poorly fitted or top-dose-only effect, or effect the other way; inactive = no such curve, though single readings can be large or run the other way. The list shows a part of the results.
Bench note: report the call from active, inactive

[[record]]
compound = "COc1ccc2c(c1)-c1ccccc1S(=O)(=O)N2C"
classlabel = "inactive"


Please share the test call associated with Cc1n[nH]c(=O)n1-c1cccc(C(F)(F)F)c1 .
inactive

Please share the test call associated with CNCCCCCCCCSc1nc(C(C)C)ccc1C(=O)c1cccs1 .
active

Please share the test call associated with CC1=C(C)/C(=N\OC(=O)/C=C/c2ccccc2)C=CC1=O .
inactive

Please share the test call associated with O=C1c2ccc3c4c(ccc(c24)C(=O)N1c1ccc2ccccc2c1)CC3 .
inactive

Please share the test call associated with CC(=O)OCc1c(C(F)(F)F)nn(C)c1Sc1ccccc1 .
inactive

Please share the test call associated with CCCc1cc(=O)oc2cc(OCC(=O)N3CCc4ccccc43)ccc12 .
active

Please share the test call associated with O=c1c2cnn(-c3ccccc3)c2nnn1/N=C/c1cccnc1 .
inactive

Please share the test call associated with CCCn1c2c(c(O)c(C(=O)NCc3ccccc3)c1=O)CCCC2 .
active

Please share the test call associated with Cn1cccc1C(=O)N1CCC[C@@]2(CCN(c3cccc(-c4ccccc4)c3)C2)C1 .
active

Please share the test call associated with Cn1cccc1C(=O)N1CCC2(CC1)CN(c1ccncc1)C2 .
inactive

Please share the test call associated with Cc1ccc(NC(=O)c2sccc2SCc2cccc(C(F)(F)F)c2)cc1 .
active

###

- subjectOfTest: Cytochrome P450 3A4 (Homo sapiens) (UniProt P08684)
- procedureSummary: Cytochrome panel assay with activity outcomes
- measurementContext: recombinant CYP, pro-luciferin dealkylation, luminescence, p450-cyp3a4; series mostly up to 57.1 µM
Screen size: about 16,000 compounds; about 5,100 (32%) were called active. About 25% were inconclusive and are not listed. Calls come from the whole dose curve; as a rule, active = well fitted curve in the direction sought with a large enough effect; inconclusive = small, poorly fitted or top-dose-only effect, or effect the other way; inactive = no such curve, though single readings can be large or run the other way. The list shows a part of the results.
Bench note: report the call from y = active, n = inactive

# count of solved cases: 8
[[record]]
compound = "Cc1cnc(CNc2ncncc2-c2ccc3c(c2)OCO3)cn1"
classlabel = "y"

[[record]]
compound = "CC1(C)C(=O)N(CCN2CCC(C(=O)c3ccc(F)cc3)CC2)c2ccccc21"
classlabel = "y"

[[record]]
compound = "Cc1c(NCc2cc(Cl)ccc2O)c(=O)n(-c2ccccc2)n1C"
classlabel = "y"

[[record]]
compound = "CCN(CC)c1ccc2c(Cl)cc(=O)oc2c1"
classlabel = "y"

[[record]]
compound = "O=C(NCC1CCC(C(=O)O)CC1)OCc1ccccc1 (configuration not stated)"
classlabel = "n"

[[record]]
compound = "Cc1ccc(S(=O)(=O)/N=C(/Nc2c(C)n(C)n(-c3ccccc3)c2=O)c2ccc(Cl)cc2)cc1"
classlabel = "y"

[[record]]
compound = "COc1ccc(Nc2cc(C(=O)NCCCN3CCN(C)CC3)c3ccccc3n2)cc1"
classlabel = "n"

[[record]]
compound = "Cc1ccc(S(=O)(=O)c2cc3ccccc3oc2=Nc2ccc3c(c2)OCO3)cc1"
classlabel = "y"


Please share the test call associated with CCN(CC)c1ccc(C(=O)OCc2cc(=O)oc3cc(O)ccc23)cc1 .
y

###

- subjectOfTest: Cytochrome P450 3A4 (Homo sapiens) (UniProt P08684)
- procedureSummary: Cytochrome panel assay with activity outcomes
- measurementContext: recombinant CYP, pro-luciferin dealkylation, luminescence, p450-cyp3a4; series mostly up to 57.1 µM
- Method: The P450 gene superfamily is involved in the metabolism and clearance of xenobiotics. This assay used various human CYP P450 isozymes to measure the dealkylation of various pro-luciferin substrates to luciferin. The luciferin is then measured by luminescence after the addition of a luciferase detection reagent. […] Inhibitors and some substrates limit the production of luciferin, and decrease measured luminescence. […] 8, Detection, 1 sec, ViewLux luminescent read […]
The whole screen tested about 16,000 compounds, of which about 5,100 (32%) were called active. Roughly 25% stayed inconclusive and do not appear here. The list shows a part of the results.
testReadout: AC50

Study these solved cases before continuing.
[[record]]
molecule = "CC(C)(C)NC(=O)C(=O)NNC(=O)c1ccccc1"
testreadout = "AC50"
resultvalue = "inactive"

[[record]]
molecule = "O=S(=O)(c1ccccc1)N1CCC2(CC1)CN(c1ncccn1)C2"
testreadout = "AC50"
resultvalue = "inactive"

[[record]]
molecule = "NC(=O)C1(N2CCCCC2)CCN(C(=O)c2cccn3c(=O)c4cc(Cl)ccc4nc23)CC1"
testreadout = "AC50"
resultvalue = "11.2 µM (active)"

[[record]]
molecule = "COc1ccc(CCNC(=O)c2nnn(CC(=O)Nc3ccccc3C)c2N)cc1OC"
testreadout = "AC50"
resultvalue = "12.6 µM (active)"

[[record]]
molecule = "C1CCc2c(nc3nnnn3c2NC2CCCC2)C1"
testreadout = "AC50"
resultvalue = "inactive"

[[record]]
molecule = "Cc1ccc(C)c(NC(=O)Cn2c([N+](=O)[O-])cnc2C)c1"
testreadout = "AC50"
resultvalue = "inactive"


Memo: Cn1c(=O)c2[nH]c(CCCCc3nc4c([nH]3)c(=O)n(C)c(=S)n4C)nc2n(C)c1=S , reported AC50: 1.26 µM (active)

Memo: C[N+]1(C)CCC[C@@H](OC(=O)C(O)(c2ccccc2)c2ccccc2)C1 , reported AC50: inactive

Memo: CCOc1ccc(NC(=O)Cn2nnc(C(=O)NCc3ccccc3OC)c2N)cc1 , reported AC50: 11.2 µM (active)

Memo: Cc1ccc2c(CC(=O)OCc3cc(=O)n4c(n3)sc3ccccc34)coc2c1 , reported AC50: 7.94 µM (active)
